Tested on: thymus weight
Experiment: Systemic (thymolytic) activity, thymus weight reduction after oral administration
Type: in vivo, rat (Wistar)
Details: rat, in vivo, 5760 min
Assignment: determine reported Systemic activity: Activity/ref. 21 act. hydro for the given compounds.
Give bare numbers.

Past entries and their recorded results:
compound: CC(=O)O[C@]1(C(=O)CSC(=O)CC(C)(C)C)[C@H](C)C[C@H]2[C@@H]3CCC4=CC(=O)C=C[C@]4(C)[C@@]3(F)[C@@H](O)C[C@@]21C
experimental.system: thymus weight
endpoint.result: 4.67

compound: CCC(=O)SCC(=O)[C@@]1(OC(C)=O)[C@@H](C)C[C@H]2[C@@H]3CCC4=CC(=O)C=C[C@]4(C)[C@@]3(F)[C@@H](O)C[C@@]21C
experimental.system: thymus weight
endpoint.result: 5.83

compound: CCCC(=O)O[C@]1(C(=O)CSC(C)=O)CC[C@H]2[C@@H]3CCC4=CC(=O)CC[C@]4(C)[C@H]3[C@@H](O)C[C@@]21C [Example 1]
experimental.system: thymus weight
endpoint.result: 0.04

Now for another entry.
If you can, please state the reported Systemic activity: Activity/ref. 21 act. hydro value of CCCCC(=O)O[C@]1(C(=O)COC(C)=O)CC[C@H]2[C@@H]3CCC4=CC(=O)C=C[C@]4(C)[C@H]3[C@@H](O)C[C@@]21C [Prednisolone-21-acetate-17-valerate, prednisolone-21-acetate-17-valerate] . 1.60

###

Test system: inflammation of the ear in the mouse
Experiment: Local anti-inflammatory activity, croton oil ear inflammation (method derived from Tonelli)
Format: in vivo
Conditions: relative to hydrocortisone-21-acetate = 1
property.name: Anti-inflammatory activity: Activity/ref. 21 act. hydro
One number for each entry.

compound: CCC(=O)SCC(=O)[C@@]1(OC(C)=O)[C@@H](C)C[C@H]2[C@@H]3CCC4=CC(=O)C=C[C@]4(C)[C@@]3(F)[C@@H](O)C[C@@]21C
endpoint.result: 25.0
//
compound: CCCCC(=O)O[C@]1(C(=O)CSC(C)=O)CC[C@H]2[C@@H]3C[C@H](C)C4=CC(=O)C=C[C@]4(C)[C@H]3[C@@H](O)C[C@@]21C
endpoint.result: 0.6
//
compound: CC(=O)OCC(=O)[C@@]1(O)CC[C@H]2[C@@H]3CCC4=CC(=O)CC[C@]4(C)[C@H]3[C@@H](O)C[C@@]21C [hydrocortisone-21-acetate]
endpoint.result: 1
//
compound: CC(C)(C)C(=O)SCC(=O)[C@@]1(O)CC[C@H]2[C@@H]3CCC4=CC(=O)CC[C@]4(C)[C@H]3[C@@H](O)C[C@@]21C [Hydrocortisone-21-thiopivalate, hydrocortisone-21-thiopivalate]
endpoint.result: 0.12
//
compound: CCC(=O)O[C@]1(C(=O)CSC(=O)CC)[C@@H](C)C[C@H]2[C@@H]3CCC4=CC(=O)C=C[C@]4(C)[C@@]3(Cl)[C@@H](O)C[C@@]21C
endpoint.result: 17.1

Now for another entry.
If you can, please state the reported Anti-inflammatory activity: Activity/ref. 21 act. hydro value of `CCC(=O)O[C@]1(C(=O)CSC(C)=O)[C@@H](C)C[C@H]2[C@@H]3CCC4=CC(=O)C=C[C@]4(C)[C@@]3(F)[C@@H](O)C[C@@]21C` . 30.0

###

Tested on: inflammation of the ear in the mouse
Experiment: Local anti-inflammatory activity, croton oil ear inflammation (method derived from Tonelli)
Assay type: in vivo
Settings: relative to hydrocortisone-21-acetate = 1
property.name: Anti-inflammatory activity: Activity/ref. 21 act. hydro
Give bare numbers.

Past entries and their recorded results:
compound: CCCC(=O)O[C@]1(C(=O)CSC(C)=O)CC[C@H]2[C@@H]3CCC4=CC(=O)CC[C@]4(C)[C@H]3[C@@H](O)C[C@@]21C
endpoint.result: 36.6
//
compound: CCCCC(=O)O[C@]1(C(=O)COC(C)=O)CC[C@H]2[C@@H]3CCC4=CC(=O)C=C[C@]4(C)[C@H]3[C@@H](O)C[C@@]21C [Prednisolone-21-acetate-17-valerate, prednisolone-21-acetate-17-valerate]
endpoint.result: 167

Now for another entry.
If you can, please state the reported Anti-inflammatory activity: Activity/ref. 21 act. hydro value of `CC(=O)O[C@]1(C(=O)CSC(=O)CC(C)(C)C)[C@H](C)C[C@H]2[C@@H]3CCC4=CC(=O)C=C[C@]4(C)[C@@]3(F)[C@@H](O)C[C@@]21C` . 32.6
